# protocol.details: Acute toxicity by intravenous route to rats
# Assay type: in vivo
# protocol.conditions: rat, in vivo, oxalate acid form except those marked (hydrochloride)
Entries and their measured LD50 follow.
State just the number; it will be interpreted in mg/kg.

CCCCc1cc2ccccn2c1C(=O)c1ccc(OCCCN(CCCC)CCCC)c(Br)c1 | 60

Specify LD50 for "CCCCc1c(Cl)c2ccccn2c1C(=O)c1ccc(OCCCN(CCCC)CCCC)cc1" and stop.
50

Specify LD50 for CCCCN(CCCC)CCCOc1ccc(C(=O)c2c(CC)cc3ccccn23)cc1 [Butoprozine, reference compound] and stop.
22

Specify LD50 for "CCCCN(CCCC)CCCOc1ccc(C(=O)c2c(C)c(Br)c3ccccn23)cc1Br.Cl" and stop.
70

Specify LD50 for "CCCCN(CCCC)CCCOc1ccc(C(=O)c2c(CC)cc3ccccn23)cc1Cl.Cl" and stop.
65

Specify LD50 for "CCCCN(CCCC)CCCOc1ccc(C(=O)c2c(CC)c(Cl)c3ccccn23)cc1Cl" and stop.
50

----------
# System: blood-flow to the myocardium
# protocol.details: Effect on blood-flow to the myocardium, anaesthetized dogs, intravenous
# Assay type: in vivo, dog
# protocol.conditions: Canis lupus familiaris, iv, dose 5 mg/kg i.v., anaesthetized dog; read-out: Max. increase (blood-flow to the myocardium)
property.label: change in vivo at 5 mg/kg (%)
State just the number; it will be interpreted in %.

CCCCN(CCCC)CCCOc1ccc(C(=O)c2c(C(C)C)c(Br)c3ccccn23)cc1Cl [Br/Cl/H/iso-C3H7/n-C4H9/3] | 133

Recall the reported change in vivo at 5 mg/kg of CCCN(CCC)CCCOc1ccc(C(=O)c2c(C(C)C)cc3ccccn23)cc1Cl [H/Cl/H/iso-C3H7/n-C3H7/3] when tested on blood-flow to the myocardium.
80

Recall the reported change in vivo at 5 mg/kg of CCCCc1cc2ccccn2c1C(=O)c1ccc(OCCCN(CCCC)CCCC)c(Cl)c1 [H/Cl/H/n-C4H9/n-C4H9/3] when tested on blood-flow to the myocardium.
75

Recall the reported change in vivo at 5 mg/kg of CCCCc1cc2ccccn2c1C(=O)c1ccc(OCCCN(CCCC)CCCC)c(Br)c1 [H/Br/H/n-C4H9/n-C4H9/3] when tested on blood-flow to the myocardium.
70

Recall the reported change in vivo at 5 mg/kg of CCCN(CCC)CCCOc1ccc(C(=O)c2c(-c3ccc(Cl)cc3)c(Cl)c3ccccn23)cc1 [Cl/H/H/drawing 22/n-C3H7/3] when tested on blood-flow to the myocardium.
50

----------
# Tested on: blood-flow to the myocardium
# protocol.details: Effect on blood-flow to the myocardium, anaesthetized dogs, intravenous
# Format: in vivo, dog
# protocol.conditions: dose 10 mg/kg i.v., anaesthetized dog
Entries and their measured Time required to decrease to 50% (duration of effect) follow.
Please format your answer as a value with the unit trailing.

Answered cases to consult:
CCCCN(CCCC)CCCOc1ccc(C(=O)c2c(CC)c(Br)c3ccccn23)cc1Br [Br/Br/H/C2H5/n-C4H9/3] | 90 min
CCCc1c(Br)c2ccccn2c1C(=O)c1ccc(OCCCN(CCC)CCC)c(Br)c1 [Br/Br/H/n-C3H7/n-C3H7/3] | 20 min

Please find the next compound below.
Specify Time required to decrease to 50% (duration of effect) for CCCCN(CCCC)CCCOc1c(Cl)cc(C(=O)c2c(C(C)C)cc3ccccn23)cc1Cl [H/Cl/Cl/iso-C3H7/n-C4H9/3] and stop.
75 min

Recorded values, source patent US4520026A.
